# test system: T1, ZGPAT 120-268 zf-CCCH+TUDOR (domain begin residue: 120, domain end residue: 268), Q8N5A5
# T1 chain: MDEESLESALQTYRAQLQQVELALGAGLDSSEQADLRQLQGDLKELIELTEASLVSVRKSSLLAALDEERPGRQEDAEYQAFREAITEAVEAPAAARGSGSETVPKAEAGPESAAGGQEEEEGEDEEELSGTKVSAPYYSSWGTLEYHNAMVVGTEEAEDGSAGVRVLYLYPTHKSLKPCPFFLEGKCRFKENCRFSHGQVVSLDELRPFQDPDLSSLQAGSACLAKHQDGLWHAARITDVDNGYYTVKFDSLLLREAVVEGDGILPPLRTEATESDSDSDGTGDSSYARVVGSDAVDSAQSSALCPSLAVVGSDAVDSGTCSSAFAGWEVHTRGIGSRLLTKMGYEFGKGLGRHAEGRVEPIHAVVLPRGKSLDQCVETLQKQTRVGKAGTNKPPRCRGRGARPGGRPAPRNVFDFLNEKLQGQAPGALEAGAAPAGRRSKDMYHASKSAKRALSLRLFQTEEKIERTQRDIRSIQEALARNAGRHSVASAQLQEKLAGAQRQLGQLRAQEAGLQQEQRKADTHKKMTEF
# test protocol: phage ELISA signal ratio (GST-PRM binding over GST background); higher = stronger binding of peptide-phage to the PRM
Exercise: for every item that follows, state its recorded phage ELISA signal ratio.
Give bare numbers.

Worked set:
DYMSQLWDHMSVDIYP    5.82
YNFIESMYTMEPMPMH    3.65
MLHDGWLMPGMTHSVN    4.63

Tell me the measured phage ELISA signal ratio of SQAMDLNAGWPWDIVM , please.
8.17
